Reported values of mortality at 2500 ppm for individual entries
Tested on: Mediterranean Fruitfly (Ceratitis capitata)
Assay Name: Mediterranean fruitfly insect diet test (B.6)
Type: in vivo
Reported Conditions: 120 h, egg and larval mortality, 5 days, in comparison with untreated controls
Readout Label: mortality at 2500 ppm

| Molecule | Measured Result |
| --- | --- |
| O=C(O)c1ccc(C2=NSC(c3cc(Cl)c(F)c(Cl)c3)(C(F)(F)F)C2)c2c1CCCC2 (stereo not shown) [Compound 2-2] | ≥ 75% |
| O=C(NCc1ncccn1)c1ccc(C2=NSC(c3cc(Cl)c(F)c(Cl)c3)(C(F)(F)F)C2)c2c1CCCC2 (stereo not shown) [Compound 2-6] | ≥ 75% |
| O=C(NCC(F)(F)F)c1ccc(C2=NSC(c3cc(Cl)c(F)c(Cl)c3)(C(F)(F)F)C2)c2c1CCC2 (stereo not shown) [Compound 1-7] | ≥ 75% |
| COC(=O)c1ccc(C2=NSC(c3cc(Cl)c(F)c(Cl)c3)(C(F)(F)F)C2)c2c1CCCC2 (stereo not shown) [Compound 2-1] | ≥ 75% |
